Where these numbers come from: ChEMBL document CHEMBL1201862

Tested on: NCI-H522
Run Description: NCI tumour cell line growth inhibition, 48 h
Active and inactive are the calls of the source. No stated cut-off is given here; in the data, active = GI50 up to about 1.1 µM and inactive = higher.
In this exercise, the only acceptable responses are TRUE (active), FALSE (inactive)

INPUT: What outcome does the record of this test show for CC1=C2C(=C[C@@](C)(CO)[C@@H]2O)C(=O)[C@](C)(O)C12CC2 ?
OUTPUT: TRUE

INPUT: What outcome does the record of this test show for CNn1c(C)n[nH]c1=O ?
OUTPUT: FALSE

INPUT: Lab log entry: CC(C)CC(NC(=O)C(CCI)Cc1ccccc1)C(=O)Nc1ccccc1 (stereo not given) — outcome as called in the assay?
OUTPUT: FALSE

***
INPUT: # fetch the recorded call for COc1ccc(-c2cc(=O)c3c(OC)c(O)c(OC)cc3o2)cc1 here
OUTPUT: FALSE

INPUT: Each molecule tested received a call. Report the one for C/C(CC(=O)Nc1ccccc1[N+](=O)[O-])=N\NC(N)=O .
OUTPUT: FALSE

INPUT: In this assay, the call recorded for O=S(=O)(F)Cc1ccccc1 [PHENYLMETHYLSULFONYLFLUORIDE] was what?
OUTPUT: FALSE

INPUT: # fetch the recorded call for CCCC(=O)O[C@H]1C=C2C[C@@]34SS[C@]5(CC6=C[C@H](OC(C)=O)[C@@H]7O[C@@H]7[C@H]6N5C3=O)C(=O)N4[C@@H]2[C@H]2O[C@H]21 here
OUTPUT: TRUE

INPUT: What call does the record list for C[C@]12CC[C@H](O[C@@H]3O[C@H](CO[C@@H]4O[C@H](CO)[C@@H](O)[C@H](O)[C@H]4O)[C@@H](O)[C@H](O)[C@H]3O)C[C@@H]1CC[C@@H]1[C@@H]2CC[C@]2(C)[C@@H](C3=CC(=O)OC3)CC[C@]12O ?
OUTPUT: FALSE

###

System: Malme-3M
Run Description: NCI tumour cell line growth inhibition, 48 h
Active and inactive are the calls of the source. Cut-off read from the data, not from the text of the source: active = GI50 up to about 1.1 µM and inactive = higher.
Give one outcome, nothing more. List: active, inactive

Below are worked cases with known answers.
INPUT: Field: outcome | Entry: O=S1(=O)CCN(c2ccccc2CC(c2c[nH]c3ccccc23)c2c[nH]c3ccccc23)CC1
OUTPUT: inactive

INPUT: For C[C@@H]1O[C@]2(O)[C@@H]3CCCN3S(=O)(=O)CCN2C1=O , what call appears in the results of this test?
OUTPUT: inactive

---
INPUT: I would be grateful if you could indicate the recorded call for CC1(C)C2CCC3(OCCO3)C1C1OC12 (stereo unspecified) .
OUTPUT: inactive

INPUT: Field: outcome | Entry: Cc1cccc(/C=N/NC(=S)N(C)CCc2ccccn2)n1
OUTPUT: active

INPUT: Can you look up the reported call for CC1(C)OCC[C@@H]1[Si](C)(C)C for me?
OUTPUT: inactive

INPUT: Entry Cc1c2cc[n+](C)cc2c(C)c2c1[nH]c1ccc(Cl)cc12 : call = ?
OUTPUT: inactive

INPUT: Any idea what this test logged for COC(=O)c1c(O)ccc2c1c1c(n2Cc2ccccn2)C(=O)c2ccccc2C1=O ?
OUTPUT: inactive

INPUT: Give the logged outcome of this assay for the following compound: CC(C)C1=CC(=O)[C@@](C)(C2[C@H](O)C[C@@]3(C)[C@@H]4CC=C5[C@@H](CC[C@@H](OC6OCC(O)C(O)C6OC6OC(C)C(O)C(O)C6O)C5(C)C)[C@]4(C)C(=O)C[C@]23C)O1 (stereo partly specified)
OUTPUT: inactive

INPUT: Per the records of this test, what outcome belongs to Oc1ccccc1C1C=C(c2ccccc2)NC(N2CCCCC2)=C1c1nc2ccccc2[nH]1 (stereo unspecified) ?
OUTPUT: inactive

INPUT: Dear colleague, could you share the recorded outcome for CSC1NC(c2ccc(Cl)cc2)=C(C#N)C(=O)N1C1OCC(OC(C)=O)C(OC(C)=O)C1OC(C)=O (stereo unspecified) when you have a moment?
OUTPUT: inactive

INPUT: Which result was noted for this compound in the test: COc1cc(C2C(C#N)=C(N)OC3=C2CCS(=O)(=O)c2ccc(C)cc23)cc(OC)c1OC (stereo unspecified)
OUTPUT: inactive

###

System: SNB-75
Run Description: NCI tumour cell line growth inhibition, 48 h
Active and inactive are the calls of the source. Rule as the data show it: active = GI50 up to about 1.1 µM and inactive = higher.
Quick reference: GI50 of the listed items.

INPUT: Specify measured GI50 for O=C1CCCc2ccc3c(c21)CC1(Cc2ccccc2C1)C3 .
OUTPUT: 1.26 µM (inactive)

INPUT: Indicate the recorded GI50 value for this compound: CC(C)OC(=O)C1=C(O)c2ccccc2S(=O)(=O)N1
OUTPUT: > 100 µM (inactive)

Continuing:
INPUT: Write down GI50 measured for item O=[N+]([O-])/C=C/c1cn(CCCCCCCCn2cc(/C=C/[N+](=O)[O-])c3ccccc32)c2ccccc12
OUTPUT: > 10 µM (inactive)

INPUT: Quickly give me recorded GI50 for CC12CCC(O)CC1CCC1C2CCC2(C)C(C(=O)CC(O)C(F)(F)F)CCC12 (stereo not given)
OUTPUT: 19.3 µM (inactive)

INPUT: Give the measured GI50 for COc1cc2cnc3c4cc(OCc5ccccc5)ccc4ccc3c2cc1OC
OUTPUT: 3.94 µM (inactive)

###

Test system: A498
Run Description: NCI tumour cell line growth inhibition, 48 h
Calls of active or inactive are those of the source. No stated cut-off is given here; in the data, active = GI50 up to about 1.1 µM and inactive = higher.
Readout Type: GI50

The cases that follow already have their GI50 on record.
INPUT: # return recorded GI50 for input CCc1nc(N)nc(N)c1-c1ccc(Cl)c(Cl)c1
OUTPUT: > 100 µM (inactive)

INPUT: // Input: CC(C)N1CCN(c2ccncc2S(=O)(=O)N2CCCCC2)CC1 . Output its GI50 only.
OUTPUT: > 100 µM (inactive)

INPUT: Fill in GI50 for record O=C1OC(c2ccc(O)cc2)(c2ccc(O)cc2)c2ccc(Cl)c3cccc1c23.O=C1OC(c2ccc(O)cc2)(c2ccc(O)cc2)c2cccc3c(Cl)ccc1c23
OUTPUT: 19.1 µM (inactive)

INPUT: Tell me GI50 reported for CCOC(=O)CCC(NC(=O)c1ccc(/N=C/c2nc3ccccc3nc2-c2ccccc2)cc1)C(=O)OCC (centres undefined)
OUTPUT: > 100 µM (inactive)

INPUT: Consider the compound C/N=C(\Nc1cccc(C(F)(F)F)c1)SCc1ccc(N=C=S)cc1 and give its recorded GI50.
OUTPUT: 19.9 µM (inactive)

Continuing:
INPUT: Name the recorded GI50 of the compound listed here: O=C(CC(=O)Nc1ccc(C(=O)O)cc1)Nc1ccc(C(=O)O)cc1
OUTPUT: > 100 µM (inactive)

INPUT: # return recorded GI50 for input Cc1ccc(S(=O)(=O)NN=C2CCCCCCCCCCC2)cc1
OUTPUT: > 100 µM (inactive)

INPUT: Determine from records and report GI50 for CC1(C)C2CCC3(OCCO3)C1C1OC12 (centres undefined)
OUTPUT: > 100 µM (inactive)

INPUT: # return recorded GI50 for input COC(=O)[C@@H]1c2cc3c(c(O)c2[C@@H](OC2OC(C)C(OC)C(C)(OC)C2OC)C[C@]1(C)O)C(=O)c1c(O)cc2c(c1C3=O)O[C@H]1O[C@]2(C)[C@H](O)[C@@H](N(C)C)[C@@H]1O (some centres undefined)
OUTPUT: 0.000507 µM (active)

###

System: IGROV-1
Run Description: NCI tumour cell line growth inhibition, 48 h
The source made the active and inactive calls. No stated cut-off is given here; in the data, active = GI50 up to about 1.1 µM and inactive = higher.
Readout Type: GI50

The following molecules have reported results that may help.
INPUT: Using known records, supply GI50 for N#Cc1c(N)nc2c(C#N)c(N)cc3c2c1Oc1ccccc1-3
OUTPUT: > 100 µM (inactive)

INPUT: Answer with reported GI50 of COC1=C(C(c2cc(OC)c(OC)c(OC)c2)c2cc3c(cc2OC)OCO3)C(=O)OC1 (configuration not stated)
OUTPUT: 29.4 µM (inactive)

INPUT: Specify measured GI50 for CN(CCCNC(=O)c1n[nH]c2c1ccc1ccccc12)CCCNC(=O)c1n[nH]c2c1ccc1ccccc12 .
OUTPUT: 16.5 µM (inactive)

New cases:
INPUT: Given the molecule N=C(c1ccc2ccccc2c1)c1ccccc1Cc1ccccc1 , write its reported GI50.
OUTPUT: 35.9 µM (inactive)

INPUT: Consider the molecule O=[N+]([O-])/C=C/c1cn(CCCCCCCCn2cc(/C=C/[N+](=O)[O-])c3ccccc32)c2ccccc12 . State its measured GI50.
OUTPUT: > 10 µM (inactive)

INPUT: Please report GI50 for the following molecule: CC[C@@H]1CN(C)[C@H]2Cc3c([nH]c4ccccc34)C(=O)C[C@H]1C2C(=O)OC (some centres not stated)
OUTPUT: > 100 µM (inactive)

INPUT: Answer with the recorded GI50 of Cc1ccc(/C=C/C(=O)c2sc(-n3nc(-c4ccccc4)cc3-c3ccccc3)nc2C)cc1 only.
OUTPUT: > 100 µM (inactive)

INPUT: Complete the entry with GI50 for NC1CC(=O)c2cscc21 (configuration not stated)
OUTPUT: > 100 µM (inactive)

INPUT: Write down GI50 measured for item COc1c(-c2nc3ccc(N4CCN(C)CC4)nc3[nH]2)cc(OC)c2c1nc(CCl)n2C
OUTPUT: 18.4 µM (inactive)

INPUT: Kindly indicate its recorded GI50. Item: CC1=CC(=O)NCCN1C
OUTPUT: > 100 µM (inactive)

INPUT: Determine its reported GI50: CCOC(=O)C1=C(c2ccccc2)N(C)c2ccccc2S1
OUTPUT: 32.4 µM (inactive)

INPUT: Give a short answer stating reported GI50 for c1ccc(-c2ccc(-c3cc4ccccc4[nH]3)cc2)cc1 .
OUTPUT: > 100 µM (inactive)

INPUT: Tell me GI50 reported for Nc1ccc(C(=O)Nn2c(-c3ccccc3)nc3ccccc3c2=O)cc1
OUTPUT: > 100 µM (inactive)

INPUT: Supply reported GI50 belonging to this molecule: COc1ccccc1-c1nc(O)c2ccccc2n1
OUTPUT: > 100 µM (inactive)

INPUT: Give recorded GI50. CC1(C)OCC[C@@H]1[Si](C)(C)C
OUTPUT: > 100 µM (inactive)

INPUT: Answer with reported GI50 of N#Cc1ccccc1NC(=O)C(=O)C(C(=O)c1ccccc1-c1ccccc1)C1OC(=O)c2ccccc21 (configuration not stated)
OUTPUT: 23.5 µM (inactive)

INPUT: Please look at this molecule and report its GI50: Cc1cccc(C)c1NC(=O)C(=O)C1C(=O)N(c2ccccc2)N=C1N (configuration not stated)
OUTPUT: > 100 µM (inactive)

INPUT: Look up GI50 of O=C1O/C(=C(/Cl)c2cccc3ccccc23)c2ccccc21 and report it.
OUTPUT: > 100 µM (inactive)

INPUT: Give me measured GI50, please, for this molecule: Nc1c(C(=O)c2ccc(Cl)cc2)[nH]c(Nc2ccc(Cl)cc2)c1C(=S)Nc1ccccc1
OUTPUT: 4.15 µM (inactive)

INPUT: Return GI50 for the following molecule: FC(F)(F)C1(C(F)(F)F)C2CCC3(CC(F)(F)C(F)(F)S3)C1C2 (configuration not stated)
OUTPUT: 87.7 µM (inactive)

INPUT: Could you please provide reported GI50 for O=C(O/N=C1/CCC/C1=C\c1ccccc1)c1ccccc1 ? Thanks!
OUTPUT: > 100 µM (inactive)

INPUT: Complete the entry with GI50 for C#CCN(Cc1ccc2nc(-c3ccccc3)c(Cl)nc2c1)c1ccc(Cl)c(Cl)c1
OUTPUT: > 100 µM (inactive)
